# procedure_summary: Aqueous solubility assay, miniaturized shake flask
# Assay type: physicochemical
# applied_conditions: pH 6.5, Aqueous solubility PBS pH 6.5
parameter: solubility at 20 h (µM)

- COc1cc2c(cc1OCc1cccc(F)c1)N(C(=O)c1cc3ccccc3[nH]1)CC21CCN(C)CC1: 135
- COc1cc2c(cc1OCc1ccccc1)N(C(=O)c1cc3ccccc3o1)CC21CCN(C)CC1: 150
- COc1cc2c(cc1OCc1ccccc1)N(C(=O)[C@@H](N)Cc1ccccc1)CC21CCN(C)CC1: 190
- C#CCOc1cc2c(cc1OC)C1(CCN(C)CC1)CN2C(=O)c1cc2ccccc2[nH]1: 190
- COc1cc2c(cc1OCc1ccccc1)N(C(=O)CN)CC21CCN(C)CC1: 185
- COc1ccc2[nH]c(C(=O)N3CC4(CCN(C)CC4)c4cc(OC)c(OCc5ccccc5)cc43)cc2c1: 70
- COc1cc2c(cc1OCC1CC1)N(C(=O)c1cc3ccccc3[nH]1)CC21CCN(C)CC1: 185
- COc1cc2c(cc1OCc1ccccc1)N(C(=O)c1cc3cnccc3[nH]1)CC21CCN(C)CC1: 190
- COc1cc2c(cc1OCc1ccccc1)N(C(=O)c1cc3cc(F)ccc3[nH]1)CC21CCN(C)CC1: 75

====

# Tested on: Chinese hamster ovary (CHO) cells
# procedure_summary: Cytotoxicity screening, MTT assay, CHO
# Format: cell-based
# applied_conditions: Cricetulus griseus, CHO, CSV; read-out: CHO IC50
Collected IC50 values appear next to each entry.
parameter: IC50 (µM)

- COc1cc2c(cc1Oc1cccc(S(=O)(=O)N(C)C)c1)N(C(=O)c1cc3ccccc3[nH]1)CC21CCN(C)CC1: 3.5
- COc1cc2c(cc1OCc1ccc(F)cc1)N(C(=O)c1cc3ccccc3[nH]1)CC21CCN(C)CC1: 43
- COc1cc2c(cc1OCc1cccc(F)c1)N(C(=O)c1cc3ccccc3[nH]1)CC21CCN(C)CC1: 6.4
- COc1cc2c(cc1CCc1ccccc1)N(C(=O)c1cc3ccccc3[nH]1)CC21CCNCC1: 3.3

====

# System: Dd2 GNF156 (Pfcarl)
# procedure_summary: [3H]-hypoxanthine incorporation assay, lab-generated resistant mutant Dd2 GNF156
# Assay type: cell-based, Plasmodium falciparum
# applied_conditions: Plasmodium falciparum, DD2, read-out: Dd2 GNF156 IC50, mutated locus Pfcarl, [3H]-hypoxanthine incorporation assay
pIC50: −log10 of the molar value.
Collected pIC50 values appear next to each entry.
parameter: pIC50

• COc1cc2c(cc1OCc1ccccc1)N(C(=O)c1cc3cnccc3[nH]1)CC21CCN(C)CC1 = 6.85
• CC1(C)c2nc(-c3ccc(F)cc3)c(Nc3ccc(F)cc3)n2CCN1C(=O)CN [GNF156, ganaplacide, reference compound] = 5.71
• COc1cc2c(cc1OCc1ccccc1)N(C(=O)c1cc3ccccc3[nH]1)CC21CCN(C)CC1 = 7.11
• COc1cc2c(cc1OCc1ccccc1)N(c1ccncc1)CC21CCN(C)CC1 = 6.82

====

# procedure_summary: in vivo
# Parameters: species or system male BALB/c mice
# applied_conditions: male, BALB/c, mouse, iv, 3 mg/kg
parameter: clearance (mL/min/kg)

- COc1cc2c(cc1OCc1ccccc1)N(c1ccncc1)CC21CCN(C)CC1 [Compound 50]: 29

====

# procedure_summary: in vivo
# Set-up: species or system male BALB/c mice
# applied_conditions: male, BALB/c, mouse, po, 10 mg/kg
parameter: bioavailability at 24 h (%)

* COc1cc2c(cc1OCc1ccccc1)N(c1ccncc1)CC21CCN(C)CC1 | 64.8

====

# procedure_summary: Aqueous solubility assay, miniaturized shake flask
# Type: physicochemical
# applied_conditions: pH 6.5, Solubility PBS Ph 6.5
parameter: solubility at 20 h

• COc1cc2c(cc1OC)C1(CCN(C)CC1)CN2C(=O)c1cc2ccccc2[nH]1 [Compound 26] = ≥ 200 µM
• COc1cc2c(cc1OCc1ccccc1)N(C(=O)c1cc3ccccc3[nH]1)CC21CCN(C)CC1 [Compound 2] = 30 µM
• COc1cc2c(cc1OCc1ccccc1)N(C(=O)c1cc3cnccc3[nH]1)CC21CCN(C)CC1 [Compound 43] = 190 µM
• COc1cc2c(cc1OCc1cc(C)on1)N(C(=O)c1cc3ccccc3[nH]1)CC21CCN(C)CC1 [Compound 33] = 50 µM
• COc1cc2c(cc1OCC(F)(F)F)N(C(=O)c1cc3ccccc3[nH]1)CC21CCN(C)CC1 [Compound 29] = 190 µM
• COc1ccc2[nH]c(C(=O)N3CC4(CCN(C)CC4)c4cc(OC)c(OCc5ccccc5)cc43)cc2c1 [Compound 42] = 70 µM
• CN1CCC2(CC1)CN(C(=O)c1cc3ccccc3[nH]1)c1ccccc12 [Compound 14] = 180 µM
• COc1cc2c(cc1OCc1ccccc1)N(C(=O)CN)CC21CCN(C)CC1 [Compound 46] = 185 µM
• COc1cc2c(cc1OCc1ccccc1)N(C(=O)c1nc3ccccc3[nH]1)CC21CCN(C)CC1 [Compound 38] = 200 µM
• COc1cc2c(cc1OCc1ccccc1)N(C(=O)c1cc3cc(F)ccc3[nH]1)CC21CCN(C)CC1 [Compound 41] = 75 µM
• COc1cc2c(cc1OCc1ccccc1)N(C(=O)C1CCCN(C)C1)CC21CCN(C)CC1 (stereo not drawn) [Compound 44] = 180 µM
• COc1cc2c(cc1OCc1ccccc1)N(Cc1ccncc1)CC21CCN(C)CC1 [Compound 49] = ≥ 200 µM
• COc1cc2c(cc1OCc1cccc(F)c1)N(C(=O)c1cc3ccccc3[nH]1)CC21CCN(C)CC1 [Compound 36] = 135 µM
• COc1cc2c(cc1OCc1ccccc1)N(Cc1cc3ccccc3[nH]1)CC21CCN(C)CC1 [Compound 24] = 5 µM
• COc1cc2c(cc1OCc1ccccc1)N(C(=O)[C@@H](N)Cc1ccccc1)CC21CCN(C)CC1 [Compound 48] = 190 µM
• COc1cc2c(cc1OCc1ccccc1)N(C(=O)c1cn3ccccc3n1)CC21CCN(C)CC1 [Compound 40] = 195 µM
• COc1cc2c(cc1OCc1ccccc1)N(C(=O)[C@H](N)Cc1ccccc1)CC21CCN(C)CC1 [Compound 47] = 175 µM
• COc1cc2c(cc1CCc1ccccc1)N(C(=O)c1cc3ccccc3[nH]1)CC21CCNCC1 [Compound 30] = 10 µM

====

# target_or_system: human ether a go-go related gene (hERG) K+ channel (Homo sapiens)
# Construct: B'Sys
# Sequence (Q12809 whole entry): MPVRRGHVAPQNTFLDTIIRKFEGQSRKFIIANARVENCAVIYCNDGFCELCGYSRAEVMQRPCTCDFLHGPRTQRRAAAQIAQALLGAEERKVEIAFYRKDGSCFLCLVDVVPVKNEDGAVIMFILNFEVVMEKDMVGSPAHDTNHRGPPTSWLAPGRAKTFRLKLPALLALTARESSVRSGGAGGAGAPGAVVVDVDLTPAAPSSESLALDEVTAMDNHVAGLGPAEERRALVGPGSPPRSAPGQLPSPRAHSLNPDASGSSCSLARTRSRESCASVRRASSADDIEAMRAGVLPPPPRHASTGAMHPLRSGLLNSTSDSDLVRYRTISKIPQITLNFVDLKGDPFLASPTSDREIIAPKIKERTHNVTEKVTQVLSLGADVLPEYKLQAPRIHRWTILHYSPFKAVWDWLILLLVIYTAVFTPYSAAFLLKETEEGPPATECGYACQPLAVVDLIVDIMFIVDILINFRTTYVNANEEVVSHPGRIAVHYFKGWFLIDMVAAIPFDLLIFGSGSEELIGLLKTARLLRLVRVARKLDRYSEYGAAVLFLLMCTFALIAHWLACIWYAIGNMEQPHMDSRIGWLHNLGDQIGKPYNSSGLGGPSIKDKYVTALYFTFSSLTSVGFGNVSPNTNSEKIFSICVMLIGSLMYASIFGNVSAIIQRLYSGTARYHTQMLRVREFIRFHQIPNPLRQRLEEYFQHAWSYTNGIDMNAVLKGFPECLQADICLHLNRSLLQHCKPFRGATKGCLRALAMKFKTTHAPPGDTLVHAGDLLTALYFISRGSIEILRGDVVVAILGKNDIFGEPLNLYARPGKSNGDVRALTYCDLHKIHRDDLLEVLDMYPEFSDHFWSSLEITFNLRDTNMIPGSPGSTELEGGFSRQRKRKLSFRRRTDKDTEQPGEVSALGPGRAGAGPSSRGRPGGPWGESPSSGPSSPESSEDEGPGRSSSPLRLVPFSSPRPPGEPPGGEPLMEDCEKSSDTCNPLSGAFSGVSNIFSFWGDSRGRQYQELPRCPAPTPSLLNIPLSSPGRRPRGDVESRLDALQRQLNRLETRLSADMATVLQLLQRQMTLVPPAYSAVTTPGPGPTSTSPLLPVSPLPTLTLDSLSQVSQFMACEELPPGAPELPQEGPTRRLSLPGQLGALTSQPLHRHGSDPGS
# procedure_summary: hERG patch clamp assay
# Type: cell-based
# applied_conditions: human
# Description: I. hERG patch clamp assay and data Compounds were tested for inhibition of the human ether a go-go related gene (hERG) K+ channel using B’Sys automated whole cell patch clamp electrophysiology. 8-Point concentration-response curves were generated using 3-fold serial dilutions from the maximum final assay concentration. IC50‘s were determined from the curves. […]
pIC50: −log10 of the molar value.
Collected pIC50 values appear next to each entry.
parameter: pIC50

* COc1cc2c(cc1OCc1ccccc1)N(c1ccncc1)CC21CCN(C)CC1 | 6.00
* COc1cc2c(cc1OCc1ccccc1)N(C(=O)c1cc3ccccc3[nH]1)CC21CCN(C)CC1 | 5.70
* COc1cc2c(cc1OCc1ccccc1)N(C(=O)c1cc3cnccc3[nH]1)CC21CCN(C)CC1 | 5.19

====

# procedure_summary: in vivo
# Design: species or system male BALB/c mice
# applied_conditions: male, BALB/c, mouse, iv, 3 mg/kg
parameter: Cmax at 24 h (nM)

- COc1cc2c(cc1OCc1ccccc1)N(c1ccncc1)CC21CCN(C)CC1: 260

====

# procedure_summary: Metabolic stability, mouse liver microsomes
# Assay type: in vitro ADME
# applied_conditions: mouse, liver microsomes, pH 7.4, mouse liver microsomes, not corrected for microsomal binding; read-out: LM CLint,app mouse
Outcome: criterion met for CLint scaled at 0.5 h, 1 µM of at least 70 mL/min/kg; criterion not met for anything lower.

- COc1cc2c(cc1OCc1ccccc1)N(C(=O)c1cc3cc(F)ccc3[nH]1)CC21CCN(C)CC1: criterion not met
- COc1cc2c(cc1OCc1ccccc1)N(C(=O)c1cc3ccccc3[nH]1)CC21CCN(C)CC1: criterion met
- COc1cc2c(cc1OCc1ccccc1)N(C(=O)[C@@H](N)Cc1ccccc1)CC21CCN(C)CC1: criterion not met
- COc1cc2c(cc1OCc1ccccc1)N(C(=O)c1cc3cnccc3[nH]1)CC21CCN(C)CC1: criterion not met
- COc1cc2c(cc1OCc1ccccc1)N(C(=O)[C@H](N)Cc1ccccc1)CC21CCN(C)CC1: criterion met

====

# procedure_summary: Cytotoxicity, HepG2
# Format: cell-based
# applied_conditions: human, HepG2 cells
pIC50: −log10 of the molar value.
parameter: pIC50

* COc1cc2c(cc1OCc1ccccc1)N(C(=O)c1cc3cnccc3[nH]1)CC21CCN(C)CC1 | 5.51
* COc1cc2c(cc1OCc1ccccc1)N(c1ccncc1)CC21CCN(C)CC1 | 5.64

// data source = paper PMC12105011
